For each record, write down the corresponding Emax.
TESTED_ON: UniProtKB P08908
Sequence (P08908 whole entry): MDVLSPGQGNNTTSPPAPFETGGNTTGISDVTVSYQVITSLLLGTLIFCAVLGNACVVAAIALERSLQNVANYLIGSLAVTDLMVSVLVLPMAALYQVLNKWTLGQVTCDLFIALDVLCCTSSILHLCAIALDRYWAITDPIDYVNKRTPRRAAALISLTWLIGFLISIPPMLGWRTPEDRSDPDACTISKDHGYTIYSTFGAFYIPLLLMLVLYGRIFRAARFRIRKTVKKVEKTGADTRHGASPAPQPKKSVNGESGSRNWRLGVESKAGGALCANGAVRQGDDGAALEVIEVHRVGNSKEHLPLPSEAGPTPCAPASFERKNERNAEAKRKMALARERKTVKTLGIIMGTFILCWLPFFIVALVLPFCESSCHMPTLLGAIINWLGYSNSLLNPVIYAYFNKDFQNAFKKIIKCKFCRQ
ASSAY_EXPLANATION: Maximal stimulation of expressed human 5-hydroxytryptamine 1A receptor assayed by [35S]GTP-gamma-S, binding
Assay type: functional
API: value field is a number in %; no unit string.

In: So what does the record say about Emax for Cc1cc2c(OC[C@@H](O)CN3CC[C@@H](c4cc5c(F)cccc5s4)C[C@@H]3C)cccc2[nH]1 ?
Out: 3.15

In: Recorded Emax for Cc1cc2c(OC[C@@H](O)CN3CC[C@@H](c4cc5c(C)cccc5s4)C[C@@H]3C)cccc2[nH]1 , please?
Out: 6.32

In: For the compound COc1cccc2sc([C@@H]3C[C@H]4CC[C@@H](C3)N4C[C@H](O)COc3cccc4[nH]ccc34)cc12 , what Emax is on record?
Out: 7.22

In: Please report the recorded Emax for Cc1cc2c(OC[C@@H](O)CN3CC[C@@H](c4cc5ccc(F)cc5s4)C[C@@H]3C)cccc2[nH]1 .
Out: 7.26

In: Record request: Emax value, item COc1cccc2sc([C@H]3C[C@H]4CC[C@@H](C3)N4C[C@H](O)COc3cccc4[nH]c(C)cc34)cc12
Out: 7.92

In: Find the recorded Emax belonging to COc1cccc2sc([C@@H]3CCN(C[C@H](O)COc4cccc5oc(C)cc45)[C@@H](C)C3)cc12 and report it.
Out: 8.76

In: Query (compound): Cc1cc2c(OC[C@@H](O)CN3CC[C@@H](c4cc5cccc(F)c5s4)C[C@@H]3C)cccc2[nH]1 ; field requested: Emax
Out: 4.09

In: Fill blank: measured Emax of the compound COc1cccc2sc([C@@H]3CCN(C[C@H](O)COc4cccc5[nH]c(C(N)=O)cc45)[C@@H](C)C3)cc12 is ____.
Out: 12.8

In: I have this compound here, COc1cccc2sc([C@@H]3CCN(C[C@H](O)COc4cccc5[nH]c(C)cc45)[C@@H](C)C3)cc12 , and I need its recorded Emax.
Out: 4.76

In: Dear colleague, I am looking for the recorded Emax of the following compound: COc1cccc2sc([C@@H]3CCN(C[C@H](O)COc4cccc5[nH]c(C)cc45)[C@H](C)C3)cc12
Out: 1.8

In: Give its Emax value. Item: COc1cccc2sc([C@H]3CCN(C[C@H](O)COc4cccc5[nH]c(C)cc45)[C@H](C)C3)cc12
Out: 2.38

In: May I ask what Emax has been recorded for COc1cc(OC)c2cc([C@@H]3CCN(C[C@H](O)COc4cccc5[nH]c(C)cc45)[C@@H](C)C3)sc2c1 ?
Out: 7.62

In: Tell me the measured Emax of Cc1cc2c(OC[C@@H](O)CN3CC[C@H](c4cc5cccc(F)c5s4)C[C@H]3C)cccc2[nH]1 , please.
Out: 6.35

In: So what does the record say about Emax for Cc1cc2c(OC[C@@H](O)CN3CC[C@@H](c4cc5ccccc5s4)C[C@@H]3C)cccc2[nH]1 ?
Out: 6.09

In: # lookup: Emax of Cc1cc2c(OC[C@@H](O)CN3CC[C@@H](c4cc5cc(F)ccc5s4)C[C@@H]3C)cccc2[nH]1
Out: 9.05

In: Entry under review: COc1ccc2cc([C@@H]3CCN(C[C@H](O)COc4cccc5[nH]c(C)cc45)[C@@H](C)C3)sc2c1 . Reported Emax?
Out: 3.21

In: # query: Emax of entry COc1cccc2sc([C@@H]3C[C@H]4CC[C@@H](C3)N4C[C@H](O)COc3cccc4[nH]c(C(N)=O)cc34)cc12
Out: 11.3

In: Report Emax for Cc1cc2c(OC[C@@H](O)CN3CC[C@@H](c4cc5cc(Cl)ccc5s4)C[C@@H]3C)cccc2[nH]1 please.
Out: 8.42

In: Using the record for COc1cccc2sc([C@@H]3CCN(C[C@H](O)COc4cccc5[nH]c(C(N)=O)cc45)[C@H](C)C3)cc12 , report its Emax.
Out: 7.21

In: Please look up its Emax: COc1cccc2sc([C@H]3CCN(C[C@H](O)COc4cccc5oc(C)cc45)[C@H](C)C3)cc12
Out: 6.49

In: Need Emax, item COc1cccc2sc([C@@H]3C[C@H]4CC[C@@H](C3)N4C[C@H](O)COc3cccc4[nH]c(C)cc34)cc12
Out: 2.98

Attribution: ChEMBL document CHEMBL1136348
